# Relative binding activity, DR1 values compiled below
SUBJECT OF TEST: HLA-DR1 (DRB1*0101) (Homo sapiens, UniProt P01903+P01911, A100R/D57E/F55L/F60I/F76Y/I96L/L162R/M171V/P40L/Q125E/R42F/V115G/Y59C)
Assay type: binding
CONDITION NOTES: ratio of IC50 of competitor peptide to IC50 of reference peptide; mean of at least two independent experiments; less than 100 = active

Worked set:
[
  {
    "SUBSTANCE": "K E F G A D C K Y K F E N W G (KEFGADCKYKFENWG) [MDK 78-92]",
    "READOUT NAME": "Relative binding activity, DR1",
    "READOUT VALUE": 299
  },
  {
    "SUBSTANCE": "K D K V K K G G P G S E C A E (KDKVKKGGPGSECAE) [MDK 25-39]",
    "READOUT NAME": "Relative binding activity, DR1",
    "READOUT VALUE": "1 251"
  },
  {
    "SUBSTANCE": "E N W G A C D G G T G T K V R (ENWGACDGGTGTKVR) [MDK 89-103]",
    "READOUT NAME": "Relative binding activity, DR1",
    "READOUT VALUE": "1 460"
  },
  {
    "SUBSTANCE": "A E W A W G P C T P S S K D C (AEWAWGPCTPSSKDC) [MDK 38-52]",
    "READOUT NAME": "Relative binding activity, DR1",
    "READOUT VALUE": "1 305"
  },
  {
    "SUBSTANCE": "Q T Q R I R C R V P C N W K K (QTQRIRCRVPCNWKK) [MDK 64-78]",
    "READOUT NAME": "Relative binding activity, DR1",
    "READOUT VALUE": 246
  }
]

Lookup result for T S A V A K K K D K V K K G G (TSAVAKKKDKVKKGG) [MDK 18-32] ; measured Relative binding activity, DR1: >5 291

Lookup result for G T K V R Q G T L K K A R Y N (GTKVRQGTLKKARYN) [MDK 99-113] ; measured Relative binding activity, DR1: 3 000

Lookup result for C K Y K F E N W G A C D G G T (CKYKFENWGACDGGT) [MDK 84-98] ; measured Relative binding activity, DR1: 187

* * *

SUBJECT OF TEST: HLA-DR15 (DRB1*1501) (Homo sapiens, UniProt P01903+P01911)
PROCEDURE SUMMARY: HLA II/peptide competition binding assay, DR15
CONDITION NOTES: ratio of IC50 of competitor peptide to IC50 of reference peptide; mean of at least two independent experiments; less than 100 = active
READOUT NAME: Relative binding activity, DR15

Lookup result for A E W A W G P C T P S S K D C (AEWAWGPCTPSSKDC) [MDK 38-52] ; measured Relative binding activity, DR15: >529

Lookup result for E T I R V T K P C T P K T K A (ETIRVTKPCTPKTKA) [MDK 119-133] ; measured Relative binding activity, DR15: >529

Lookup result for C G V G F R E G T C G A Q T Q (CGVGFREGTCGAQTQ) [MDK 52-64] ; measured Relative binding activity, DR15: >529
